# System: LOX IMVI melanoma
# Experiment notes: NCI-60 one-dose screen, 48 h
# Condition details: 10 µM unless noted
This is part of a sample that, as a whole, favours compounds with a hit. Of some 83,000 tested, about 20% had one in any assay. The source made the active and inactive calls. The calls were made as follows: active = growth percent below 10; inactive = the rest.
Write down the outcome that applies. Available outcomes: true = active, false = inactive

Tell me the recorded outcome of this test for Cc1ccc(C2=NN(c3ccc(S(N)(=O)=O)cc3)C(c3cn(-c4ccccc4)nc3-c3ccccc3)C2)cc1 (centres undefined) .
false

Queued: `C=CCc1cc(Cl)cc2c(OC(C)=O)c(C(C)=O)c(-c3ccccc3)nc12`
false

Queued: `CCCS(=O)(=O)c1nc(NC2CC2)cc(-c2ccc3c(ccn3C3CC(C)(C)NC(C)(C)C3)c2)n1`
true

Queued: `COc1cc(Cn2c(-c3nonc3N)nc3ccccc32)ccc1C`
false

Queued: `COc1ccc(/C=C/c2nc(N3CCOCC3)c3cc(F)c(F)cc3n2)cc1OC`
false

Queued: `O=C(/C=C/CN1CCOCC1)Nc1cc2c(Nc3ccc(F)c(Cl)c3F)ncnc2cc1OCCOC(F)F`
false

Queued: COc1ccc(C2=NN(c3ccc(S(N)(=O)=O)cc3)C(c3cn(-c4ccccc4)nc3-c3ccc(Cl)cc3)C2)cc1 (centres undefined)
false

Queued: `c1ccn2nnnc2c1`
false

Queued: `O=P([O-])(O)OP(=O)([O-])O.[NH-][C@H]1CCCC[C@@H]1[NH-].[OH-].[OH-].[Pt+4]`
false

Queued: O=C(NCCc1c[nH]c2ccccc12)C1Cc2ccccc2CN1C(=O)c1ccco1 (centres undefined)
false

Queued: COC1=CC(c2ccc[nH]2)=N/C1=C\c1[nH]c(C)c(CCCn2cc(CCCCCCCCC[C@@H]3Cc4cc(O)ccc4C4CC[C@]5(C)[C@@H](O)CC[C@H]5C43)nn2)c1C (some centres undefined)
false

Queued: Cc1cc2c(c(=O)o1)C(c1ccc(OC(=O)N3CCOCC3)cc1)C(C#N)=C(N)O2 (centres undefined)
false

Queued: CCC(c1cccc(Br)c1)C(C(=O)O)c1ccc(OC)cc1 (centres undefined)
false

Queued: `O=C(CN1CCN(c2cc3c(cc2F)c(=O)c(C(=O)O)cn3C2CC2)CC1)Nc1ccc(C(=O)/C=C/c2ccc(Cl)cc2)cc1`
false

Queued: `Cc1ccc(Cn2c(-c3cccs3)nc3ccccc32)cc1`
false

Queued: COc1cc2c(cc1OC)C1(C)N(CC2)C(=O)OC1(C)C (centres undefined)
false

Queued: `Cc1ccccc1C(=O)c1ccccc1C(=O)O`
false

Queued: `NS(=O)(=O)c1ccc(NCC(=O)Nc2ccc(-c3nc4ccccc4s3)cc2)cc1`
false

Queued: `Cc1cc(Nc2nc(C(=O)Nc3ccccc3)nc3ccccc23)n[nH]1`
false

----------
Please respond with reported growth for every item in the list.
# System: T-47D breast
# Experiment notes: NCI-60 one-dose screen, 48 h (100 = growth as untreated, 0 = no growth, -100 = all killed)
# Condition details: 10 µM unless noted
The panel holds about 83,000 compounds, 20% with a hit somewhere; the sample as a whole holds those more often. Activity calls are given as the source filed them. Rule for the calls: active = growth percent below 10; inactive = the rest.

Which growth value belongs to `COc1cc(/C=C/C(=O)c2ccccc2O)ccc1OCCCOc1cc2c(cc1OC)C(=O)N1CCC[C@H]1C=N2` ?
21.8% (inactive)

Queued: `O=c1[nH]c(-c2cn(-c3ccc(Cl)cc3)nn2)nc2ccccc12`
54.4% (inactive)

Queued: Cc1ccc(C2=NN(c3ccc(S(N)(=O)=O)cc3)C(c3cn(-c4ccccc4)nc3-c3ccccc3)C2)cc1 (stereo not given)
83.7% (inactive)

Queued: `Cc1ccc(Cn2c(-c3nonc3N)nc3ccccc32)cc1`
74.6% (inactive)

Queued: `O=S(=O)(NCCCNc1cc(-c2cn(-c3ccccc3)nc2-c2cccc(O)c2)ccn1)c1ccc(Br)cc1`
12.5% (inactive)

Queued: COc1ccc2c(c1)C=CC(C#N)N2C(=O)c1ccccc1 (stereo not given)
69.8% (inactive)

Queued: Cc1c(C2=NNC(c3ccc4c(c3)OCO4)C2)[n+]([O-])c2ccccc2[n+]1[O-] (stereo not given)
92.3% (inactive)

Queued: O=C1NCC(c2cc3ccccc3[nH]c2=O)Nc2ccccc21 (stereo not given)
91% (inactive)

Queued: `Cc1cc(C)c(S(=O)(=O)N2CCN(c3cc4c(cc3F)c(=O)c(C(=O)O)cn4C3CC3)CC2)c(C)c1`
62.9% (inactive)

Queued: `Cc1ccc(-c2csc3nc(C)c(CCCl)c(=O)n23)cc1`
76.7% (inactive)

Queued: CC1=NN2C(=NC3=C(CCC/C3=C\c3ccc(Cl)cc3)C2c2ccc(Cl)cc2)S1 (stereo not given)
89.1% (inactive)

Queued: `O=C(O)c1cn(C2CC2)c2cc(N3CCN(S(=O)(=O)c4ccc(Cl)c(Cl)c4)CC3)c(F)cc2c1=O`
16.3% (inactive)

Queued: `COc1cccc(-c2nc3sccn3c2-c2ccnc(NCCCNS(=O)(=O)c3ccc(F)cc3)n2)c1`
-8.19% (active)

Queued: `COc1cc(NC(=O)CSc2nc3ccc(C)cc3c(=O)n2-c2ccccc2)cc(OC)c1OC`
81.7% (inactive)

Queued: Nc1cccc2c1CN(C1CCC(=O)NC1=O)C2=O (stereo not given)
97.5% (inactive)

Queued: `COC(=O)CCCCN=Cc1c(O)c(O)c(C(C)C)c2cc(C)c(-c3c(C)cc4c(C(C)C)c(O)c(O)c(C=NCCCCC(=O)OC)c4c3O)c(O)c12`
24.9% (inactive)

Queued: COc1ccc2c(c1)C(C)Cc1c(N(C)C)ncnc1N2C (stereo not given)
34.7% (inactive)

Queued: `O=C(O)c1ccc(-n2cc(CNc3ccc(C(F)(F)F)cc3)c(-c3ccccc3)n2)cc1`
79.2% (inactive)

Queued: `CCOC(=O)/C=C\C(=O)NC(N)=O`
89.1% (inactive)

Queued: `O=C(O)C(=Cc1c2ccccc2cc2ccccc12)C(=O)O`
90.5% (inactive)
